These measurements were taken from patent US20090053750A1.

# SUBJECT_OF_TEST: T1, class I MHC receptor HLA-A2 on T2 cells (human)
# T1 construct: detected on the cell surface with a mouse anti-human HLA-A2 monoclonal antibody and goat anti-mouse IgG F(ab')2-FITC; also called HLA-A2 receptor; HLA-A2 class I MHC
# EXPERIMENTAL_PROTOCOL: T2 cells, anti-HLA-A2 flow cytometry after brefeldin A; Assay #2; 6 hr
MEASURE_NAME: fluorescence index (F.I.)
Form entry: value (F.I.) — number only.

Before answering, review these 4 worked examples.
- BINDER: "GQGDVMVFV [Filamin B peptide #6]"
  MEASUREMENT_UNIT: "F.I."
  NUMERIC_RESULT: 1
- BINDER: "KLILGLVWT [Filamin B peptide #7]"
  MEASUREMENT_UNIT: "F.I."
  NUMERIC_RESULT: 1
- BINDER: "SLQESGLKV [Filamin B peptide #4]"
  MEASUREMENT_UNIT: "F.I."
  NUMERIC_RESULT: 1
- BINDER: "GLAPLEVRV [Filamin B peptide #3]"
  MEASUREMENT_UNIT: "F.I."
  NUMERIC_RESULT: 2.94

Tell us which fluorescence index value is on record for LILGLVWTL [Filamin B peptide #1]
1.83
